- Experimental system: Mitogen-activated protein kinase 14 (Homo sapiens)
- Sequence (Q16539 whole entry): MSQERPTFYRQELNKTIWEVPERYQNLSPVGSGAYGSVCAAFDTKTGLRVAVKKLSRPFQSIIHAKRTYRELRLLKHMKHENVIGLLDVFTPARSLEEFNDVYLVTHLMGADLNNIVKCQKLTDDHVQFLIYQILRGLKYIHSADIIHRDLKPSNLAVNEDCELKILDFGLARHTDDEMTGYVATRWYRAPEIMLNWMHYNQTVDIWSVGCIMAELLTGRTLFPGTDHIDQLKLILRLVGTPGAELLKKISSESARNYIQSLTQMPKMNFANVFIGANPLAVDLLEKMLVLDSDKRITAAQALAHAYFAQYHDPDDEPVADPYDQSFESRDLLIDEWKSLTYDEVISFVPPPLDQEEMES
- Method description: Inhibition of p38alpha MAP kinase in human whole blood assessed as inhibition of LPS-induced TNFalpha release by ELISA
Endpoint label: IC50 (nM)

The following molecules have reported results that may help.
Incoming: I'm curious: which IC50 was measured for "Cc1cc(F)c(NC(=O)c2ccsc2)cc1Nc1ccc2c(c1)OCc1ccc(OCCN3CCOCC3)cc1C2=O" tested on Mitogen-activated protein kinase 14 (Homo sapiens)?
Outgoing: 148

Incoming: Request: "O=C1c2ccc(OCCN3CCOCC3)cc2COc2cc(Nc3ccc(F)cc3F)ccc21"
Outgoing: 71800

Incoming: Queued: "O=C1c2cc(OC[C@@H](O)CO)ccc2COc2cc(Nc3ccc(F)cc3F)ccc21"
Outgoing: 591

Incoming: Follow-up entry: "Nc1ccc2c(c1)C(=O)c1ccc(Nc3ccc(F)cc3)cc1OC2"
Outgoing: 5700

Incoming: Quick one: "O=C1c2ccccc2COc2cc(Nc3ccc(F)cc3F)ccc21"
Outgoing: 22000

Incoming: Proceed to "Nc1ccc2c(c1)C(=O)c1ccc(Nc3ccccc3F)cc1OC2"
Outgoing: 4540

Incoming: # iterate: "O=C1c2cc(OCCN3CCOCC3)ccc2COc2cc(Nc3ccc(F)cc3F)ccc21"
Outgoing: 429

[P] Nc1cccc(Nc2ccc3c(c2)OCc2ccc(N)cc2C3=O)c1
[Q] O=C1c2ccc(Nc3ccc(F)cc3F)cc2CCc2ccc(OCCO)cc21
[R] Cc1cc(F)c(NC(=O)c2ccsc2)cc1Nc1ccc2c(c1)OCc1ccc(OC[C@H](O)CO)cc1C2=O
Incoming: Arrange the 3 entries by IC50 so the values rise. Hello, could you send the labels back in the order asked? Thank you.
Outgoing: R, Q, P

The values you see were collected from ChEMBL document CHEMBL3085714.
